- target_system: PD-1/PD-L1 (Homo sapiens, UniProt Q9NZQ7)
- Construct: made in house; host or cells: HEK293T
- Sequence (Q9NZQ7 with tags, fused parts or gaps): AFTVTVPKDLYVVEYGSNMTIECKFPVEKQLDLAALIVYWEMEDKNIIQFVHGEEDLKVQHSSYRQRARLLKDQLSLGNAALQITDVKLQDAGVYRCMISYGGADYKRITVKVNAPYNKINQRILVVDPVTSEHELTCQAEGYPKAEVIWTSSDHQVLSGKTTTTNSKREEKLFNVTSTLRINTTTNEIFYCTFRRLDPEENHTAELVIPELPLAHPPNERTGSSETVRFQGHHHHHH
- assay_remarks: PD-1/PD-L1 Homogenous Time-Resolved Fluorescence (HTRF) binding assay
- measurement_context: PD-L1-His 10 nM, PD-1-Ig 20 nM; value given as range class; read-out: Range or IC50
pIC50: −log10 of the molar value.
quantity: pIC50

| molecule | pIC50 |
| --- | --- |
| Cc1c(COc2cc(OCc3cncc(C#N)c3)c(CN3CCCC[C@H]3C(=O)O)cc2Cl)cccc1-c1cccc(OCCC(=O)N2CC[C@@H](O)C2)c1 [Example 1011] | 5.70 to 7.00 |

Query block: Please report the recorded pIC50 for Cc1c(COc2cc(OCc3cncc(C#N)c3)c(CNC3(C(=O)O)CC3)cc2Cl)cccc1-c1cccc(OCCCN2CC[C@@H](O)C2)c1C [Example 4110] .
Result block: 8.00 to 9.68

Query block: Input C=CC(=O)NCCCOc1cccc(-c2cccc(COc3cc(OCc4cncc(C#N)c4)c(CN4CCCC[C@H]4C(=O)O)cc3Cl)c2C)c1 [Example 1020]
Result block: 7.00 to 8.00

* * *

- target_system: PD-1/PD-L1 (Homo sapiens)
- Construct: made in house; host or cells: HEK293T
- assay_remarks: PD-1/PD-L1 Homogenous Time-Resolved Fluorescence (HTRF) binding assay
- measurement_context: PD-L1-His 10 nM, PD-1-Ig 20 nM; value given as range class; read-out: Range or IC50
- Description: The ability of the compounds of formula (I) to bind to PD-L1 was investigated using a PD-1/PD-L1 Homogenous Time-Resolved Fluorescence (HTRF) binding assay. Homogenous Time-Resolved Fluorescence (HTRF) Binding Assay. All binding studies were performed in an HTRF assay buffer consisting of dPBS supplemented with 0.1% […] bovine serum albumin and 0.05% (v/v) Tween-20. […]
pIC50: −log10 of the molar value.
# pIC50 per record follows

| compound | pIC50 |
| --- | --- |
| Cc1c(COc2cc(OCc3cncc(C#N)c3)c(CNC(C)(CO)CO)cc2Cl)cccc1-c1cccc(OCCCN2CCC[C@H](CO)C2)c1C [Example 2295] | 8.00 to 9.68 |
| Cc1c(COc2cc(OCc3cncc(C#N)c3)c(CN3CCCC[C@H]3C(=O)O)cc2Cl)cccc1-c1cccc(OCCCN2CCC[C@@H](O)C2)c1 [Example 1018] | 8.00 to 9.68 |
| CCNC(=O)c1cccc(-c2cccc(COc3cc(OCc4cc(F)cc(F)c4)c(CN4C[C@H](O)C[C@H]4C(=O)O)cc3Cl)c2C)c1C [Example 4019] | 5.70 to 7.00 |
| COC(=O)C1(O)CCN(CCCOc2cccc(-c3cccc(COc4cc(OCc5cncc(C#N)c5)c(CN[C@](C)(CO)C(=O)O)cc4Cl)c3C)c2C)C1 (stereo partly drawn) [Example 1046] | 8.00 to 9.68 |
| Cc1c(COc2cc(OCc3cncc(C#N)c3)c(CNC(C)(CO)CO)cc2Cl)cccc1-c1cccc(OCCCNC(C)(CO)CO)c1Cl [Example 2102] | 8.00 to 9.68 |

Query block: Please report the recorded pIC50 for Cc1c(COc2cc(OCc3ccc(F)c(F)c3)c(CNC(CO)(CO)CO)cc2Cl)cccc1-c1cccc(OCCCN2CC[C@@H](O)C2)c1C [Example 4511] .
Result block: 8.00 to 9.68

Query block: Input CCC(CO)(CO)NCc1cc(Cl)c(OCc2cccc(-c3cccc(OCCCN4CC[C@@H](O)C4)c3C)c2C)cc1OCc1cncc(C#N)c1 [Example 2280]
Result block: 8.00 to 9.68

Query block: Input Cc1c(COc2cc(OCc3cncc(C#N)c3)c(CN3CCCC[C@H]3C(=O)O)cc2Cl)cccc1-c1ccc2c(c1)OC(CCN1CC[C@H](O)C1)CO2 (mixture of isomers) [Example 1503]
Result block: 7.00 to 8.00

Numbers sourced from patent US10745382B2.
